Data origin, for the record: the kinase profiling compilation of Christmann-Franck et al. (2016)

assayed target: RPS6KA5 KD1 KD2 (human) (UniProt O75582)
Sequence (O75582 whole entry, looked up): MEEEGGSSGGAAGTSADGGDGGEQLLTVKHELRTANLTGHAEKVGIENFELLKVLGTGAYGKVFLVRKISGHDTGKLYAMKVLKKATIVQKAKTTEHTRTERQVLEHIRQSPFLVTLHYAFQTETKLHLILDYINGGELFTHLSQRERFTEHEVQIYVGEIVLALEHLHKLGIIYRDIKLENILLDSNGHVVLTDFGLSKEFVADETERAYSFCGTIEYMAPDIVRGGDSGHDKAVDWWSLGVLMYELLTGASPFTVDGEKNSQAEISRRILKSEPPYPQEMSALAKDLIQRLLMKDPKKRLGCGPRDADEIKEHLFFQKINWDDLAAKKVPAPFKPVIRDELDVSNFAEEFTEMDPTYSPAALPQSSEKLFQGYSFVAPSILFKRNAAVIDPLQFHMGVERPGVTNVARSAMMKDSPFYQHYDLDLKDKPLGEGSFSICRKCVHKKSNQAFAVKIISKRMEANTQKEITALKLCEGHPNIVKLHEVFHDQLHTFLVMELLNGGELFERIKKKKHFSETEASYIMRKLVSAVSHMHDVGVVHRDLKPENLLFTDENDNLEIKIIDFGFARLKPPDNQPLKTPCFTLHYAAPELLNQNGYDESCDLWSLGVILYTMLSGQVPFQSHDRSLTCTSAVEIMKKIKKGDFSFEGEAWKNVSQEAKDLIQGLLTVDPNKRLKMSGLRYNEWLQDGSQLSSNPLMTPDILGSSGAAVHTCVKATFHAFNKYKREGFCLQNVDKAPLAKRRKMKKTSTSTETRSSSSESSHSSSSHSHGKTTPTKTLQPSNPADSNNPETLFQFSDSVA
assay summary: radiometric filter-binding kinase assay
test conditions: compound 1.0 µM; ATP 20 µM
I'd be grateful if you could share measured residual activity for these entries.
Phrase the answer as number then unit, nothing more needed.

>  <compound>
O=S(=O)(NCCNC/C=C/c1ccc(Br)cc1)c1cccc2cnccc12

>  <residual activity>
9%

$$$$
>  <compound>
COC[C@H]1OC(=O)c2coc3c2[C@@]1(C)C1=C(C3=O)[C@@H]2CCC(=O)[C@@]2(C)C[C@H]1OC(C)=O

>  <residual activity>
85%

$$$$
>  <compound>
O=C1c2ccccc2-c2n[nH]c3cccc1c23

>  <residual activity>
72%

$$$$
>  <compound>
COc1ccc2c(c1)=NC1=C(C)NCCC=21

>  <residual activity>
94%

$$$$
>  <compound>
CC(C)(N)c1ccc(-c2nc3ccccc3nc2-c2ccccc2)cc1

>  <residual activity>
81%

$$$$

Moving on to another compound below.
Input line: residual activity of CO[C@H]1CC2CC[C@@H](C)[C@@](O)(O2)C(=O)C(=O)N2CCCC[C@H]2C(=O)OC([C@H](C)C[C@@H]2CC[C@@H](O)[C@H](OC)C2)CC(=O)[C@H](C)/C=C(\C)[C@@H](O)[C@@H](OC)C(=O)[C@H](C)C[C@H](C)/C=C/C=C/C=C/1C (stereo partly specified) on RPS6KA5 KD1 KD2 (human) (UniProt O75582)?
Output line: 86%
